Value source: patent US7816353B2

target: p70S6K (Homo sapiens, UniProt P23443, T412E); construct: human p70S6 kinase domain residues 1-421, containing a T412E mutation; made in house; experiment: p70S6 Kinase Assay (Luciferase-Coupled Chemiluminescent Kinase assay, LCCA); assay type: biochemical; settings: human p70S6 kinase domain residues 1-421, T412E; 5 μM ATP; read-out: p70S6K IC50
Sequence (P23443 1-421 T412E): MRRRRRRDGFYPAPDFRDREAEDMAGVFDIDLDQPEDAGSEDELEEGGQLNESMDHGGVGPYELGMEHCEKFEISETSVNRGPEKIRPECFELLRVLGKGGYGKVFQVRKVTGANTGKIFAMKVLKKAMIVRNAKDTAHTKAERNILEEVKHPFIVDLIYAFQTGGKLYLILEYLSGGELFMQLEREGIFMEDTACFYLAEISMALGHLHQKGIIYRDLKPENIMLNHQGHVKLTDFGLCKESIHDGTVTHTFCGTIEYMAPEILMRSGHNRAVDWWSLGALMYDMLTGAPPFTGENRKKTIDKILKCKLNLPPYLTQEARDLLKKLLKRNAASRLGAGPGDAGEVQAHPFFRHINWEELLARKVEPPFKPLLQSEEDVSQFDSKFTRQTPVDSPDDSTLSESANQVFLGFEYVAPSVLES
pIC50: −log10 of the molar value.
Record form. Attribute: pIC50. Fill in for each entry.

Provide value of pIC50 for this record tested with p70S6K (Homo sapiens, UniProt P23443, T412E): CSc1nc(N)nc(N[C@@H](C)C(=O)Nc2cc(C(=O)O)cc(C(F)(F)F)c2)c1C#N
5.70 to 6.30

# returns recorded pIC50 (system: p70S6K (Homo sapiens, UniProt P23443, T412E)) for CSc1nc(N)nc(SCC(=O)Nc2nccs2)c1C#N
> 7.30

Give pIC50 (p70S6K (Homo sapiens, UniProt P23443, T412E)) of the following compound: CSc1nc(N)nc(SCC(=O)Nc2cccc(C(F)(F)F)n2)c1C#N
> 7.30

Form entry - test system: p70S6K (Homo sapiens, UniProt P23443, T412E); read-out: pIC50; compound: CSc1nc(N)nc(N(C)[C@@H](C)C(=O)Nc2cc(C(=O)NCCCN3CCN(C)CC3)cc(C(F)(F)F)c2)c1C#N
> 7.30

Query for p70S6K (Homo sapiens, UniProt P23443, T412E): what pIC50 does the record show for COc1nc(N)nc(N(C)[C@@H](C)C(=O)Nc2cccc(C(F)(F)F)c2)c1C#N ?
< 5.70

Provide the documented pIC50 with p70S6K (Homo sapiens, UniProt P23443, T412E) as the system for CCN(CC)CCNc1cc(NC(=O)[C@H](C)Nc2nc(N)nc(SC)c2C#N)cc(C(F)(F)F)c1
< 5.70

API: value(readout= pIC50, system= p70S6K (Homo sapiens, UniProt P23443, T412E), query= COCCN(CCC[C@H](Nc1nc(N)nc(SC)c1C#N)C(=O)Nc1cccc(C(F)(F)F)c1)CCOC )
< 5.70

What reported pIC50 corresponds to C[C@H](Nc1nc(N)nc(N[C@@H](C)C(=O)Nc2cccc(C(F)(F)F)c2)c1C#N)C(=O)Nc1cccc(C(F)(F)F)c1 on p70S6K (Homo sapiens, UniProt P23443, T412E)?
< 5.70

Query pIC50 on p70S6K (Homo sapiens, UniProt P23443, T412E) for Nc1nc(Cl)c(C=O)c(SCC(=O)Nc2cccc(C(F)(F)F)c2)n1
6.30 to 7.30

Form field - read-out: pIC50; system: p70S6K (Homo sapiens, UniProt P23443, T412E); submitted item: CSc1nc(N)nc(SCC(=O)Nc2cc(C(F)(F)F)ccc2Cl)c1C#N
5.70 to 6.30

Please tell me: pIC50 of CSc1cc(COC(=O)Nc2cccc(C(F)(F)F)c2)nc(NCc2ccccc2)n1 , system p70S6K (Homo sapiens, UniProt P23443, T412E)?
> 7.30

Lab note: need pIC50 with p70S6K (Homo sapiens, UniProt P23443, T412E) for entry CCOc1nc(N)nc(N(C)[C@@H](C)C(=O)Nc2cccc(Br)c2)c1C#N , please look it up.
< 5.70

Provide the documented pIC50 with p70S6K (Homo sapiens, UniProt P23443, T412E) as the system for CSc1nc(N)nc(N[C@@H](CCC(=O)O)C(=O)Nc2cccc(C(F)(F)F)c2)c1C#N
5.70 to 6.30

API: value(readout=pIC50, system=p70S6K (Homo sapiens, UniProt P23443, T412E)) for record CSc1ncc(C#N)c(NCC(=O)Nc2cccc(C(F)(F)F)c2)n1
< 5.70

Item: CCOc1nc(N)nc(N(C)[C@@H](CCCCN)C(=O)Nc2cccc(C(F)(F)F)c2)c1C#N Test system: p70S6K (Homo sapiens, UniProt P23443, T412E) Read-out: pIC50 Value: ?
> 7.30

Missing value: pIC50, p70S6K (Homo sapiens, UniProt P23443, T412E), entry CCCCOc1cccc(NC(=O)CSc2nc(N)nc(SC)c2C#N)c1 . Fill in?
> 7.30

Form: Entry = C[C@H](Nc1nc(N)nc([S+](C)[O-])c1C#N)C(=O)Nc1cccc(C(F)(F)F)c1 (some centres unmarked) | System = p70S6K (Homo sapiens, UniProt P23443, T412E) | pIC50 = ____
< 5.70
